Data provenance: ChEMBL document CHEMBL1201862

Test system: IGROV-1
Assay: NCI tumour cell line growth inhibition, 48 h
Calls of active or inactive are those of the source. Rule as the data show it: active = GI50 up to about 1.1 µM and inactive = higher.
Thanks in advance; please answer with one of these: YES = active, NO = inactive

Prompt: Returns: the outcome recorded for CCN(CC)CCNc1ccc2nnn3c4ccc(OC)cc4c(=O)c1c23 in this assay.
Response: NO

Prompt: Returns: the outcome recorded for O=C(/C=C1/Nc2ccc([N+](=O)[O-])cc2NC1O)c1cccc([N+](=O)[O-])c1 (centres undefined) in this assay.
Response: NO

Prompt: Returns: the outcome recorded for NC(=O)c1ccc2c(c1)S(=O)(=O)c1ccccc1C2=O in this assay.
Response: NO

Prompt: Returns: the outcome recorded for CCN(CC)CCCNc1nc(=O)[nH]c(C)c1C(=O)Nc1c2ccccc2nc2ccccc12 in this assay.
Response: NO

Prompt: Returns: the outcome recorded for O=C(Sc1sc(=S)sc1SC(=O)c1ccccc1)c1ccccc1 in this assay.
Response: NO

----------
Listing of entries alongside the reported GI50.
System: CCRF-CEM
Test: NCI tumour cell line growth inhibition, 48 h
Calls of active or inactive are those of the source. No stated cut-off is given here; in the data, active = GI50 up to about 1.1 µM and inactive = higher.

Here's what some known entries look like.
COc1cc(/C=c2/c3ccccc3n3c2cc(-c2ccccc2)[n+]3C)cc(OC)c1OC
3.52 µM (inactive)
COC(=O)C(NC(=O)c1ccccc1)c1ccco1 (configuration not stated)
> 100 µM (inactive)
O=c1cc(-c2cccnc2)[nH]c2cc3c(cc12)OCO3
6.65 µM (inactive)

// below: GI50 requested for another compound
Prompt: So what GI50 did COC(CN(C)C(=O)C(C)NC(=O)c1ccccc1)OC (configuration not stated) get with CCRF-CEM?
Response: > 100 µM (inactive)

----------
Listing of entries alongside the reported GI50.
Tested on: OVCAR-5
Assay: NCI tumour cell line growth inhibition, 48 h
Activity calls are given as the source filed them. Rule as the data show it: active = GI50 up to about 1.1 µM and inactive = higher.

BrC1=CN2C[n+]3cc(Br)c4ccccc4c3N=C2c2ccccc21
17.9 µM (inactive)
COc1ccc(CNNC(=O)c2cc[n+]([BH2-]C#N)cc2)cc1OC
> 100 µM (inactive)
COc1ccc(/N=C(Nc2ccc(OC)cc2)/C(=N/c2ccc(OC)cc2)Nc2ccc(OC)cc2)cc1
> 100 µM (inactive)
Clc1ccc(C2=NCON=C2c2ccc(Cl)cc2)cc1
20.1 µM (inactive)

// below: GI50 requested for another compound
Prompt: Query (compound): CN1CCc2cc(N)cc3c2C1Cc1ccc(O)c(O)c1-3 (stereo not given) ; field requested: GI50
Response: 85.1 µM (inactive)

----------
Tested on: KM12
Experiment: NCI tumour cell line growth inhibition, 48 h
Calls of active or inactive are those of the source. No stated cut-off is given here; in the data, active = GI50 up to about 1.1 µM and inactive = higher.
readout type: GI50

Here's what some known entries look like.
CC(=O)OC12c3ccccc3-c3ccccc3C1C1C(=O)N(C)C(=O)C12Cl (centres undefined)
> 10 µM (inactive)
COc1cccc(N2C(=O)/C(=C\c3ccccc3)SC2c2cc(OC)c(OC)c(OC)c2)c1 (centres undefined)
36.5 µM (inactive)
Cc1nc2ccccc2c(=O)n1/N=C(\N=N\c1cc(Cl)ccc1Cl)c1ccccc1
10.3 µM (inactive)
COc1ccccc1-c1cc(O)c2c(C)ccnc2n1
27.7 µM (inactive)
Clc1ccc(C2=NCON=C2c2ccc(Cl)cc2)cc1
15.5 µM (inactive)

Prompt: Query (compound): CN(C)c1ccc(/C=C(\NC(=O)c2ccccc2)C2=NC(CCC(=O)O)C(=O)O2)cc1 (centres undefined) ; field requested: GI50
Response: 42.8 µM (inactive)

Prompt: Query (compound): Cc1cc(/N=N/c2ccccc2C)ccc1N ; field requested: GI50
Response: 10.6 µM (inactive)

Prompt: Query (compound): COC(NC(=O)Nc1ccccc1C)(C(F)(F)F)C(F)(F)F ; field requested: GI50
Response: > 100 µM (inactive)

Prompt: Query (compound): COc1ccc(C[C@@H](CO)NC2=C(C#N)CCC2)cc1 ; field requested: GI50
Response: 19.5 µM (inactive)

----------
Listing of entries alongside the reported GI50.
Tested on: A498
Experiment: NCI tumour cell line growth inhibition, 48 h
Active and inactive are the calls of the source. No stated cut-off is given here; in the data, active = GI50 up to about 1.1 µM and inactive = higher.

Here's what some known entries look like.
O=C(/C=C/c1ccc(Cl)c(Cl)c1)CCN1CCN(CCC(=O)/C=C/c2ccc(Cl)c(Cl)c2)CC1
34.9 µM (inactive)
O=S(=O)(c1ccccc1)[C@@H]1[C@H]2C=C[C@](CS)(O2)[C@H]1S(=O)(=O)c1ccccc1
> 100 µM (inactive)
O=C1N[C@@H](O)[C@@H]2ON=C(c3ccccc3)[C@H]12
> 100 µM (inactive)
COc1ccc(C2=NNC(=O)c3ccccc3N2c2nc(-c3cccs3)nc3cc(OC)c(OC)cc23)cc1
2.61 µM (inactive)

// below: GI50 requested for another compound
Prompt: Query (compound): CCOC(CN(C)C(=S)Nc1cccc2ccccc12)OCC ; field requested: GI50
Response: 6.95 µM (inactive)

----------
System: MCF7
Assay: NCI tumour cell line growth inhibition, 48 h
The source made the active and inactive calls. Cut-off read from the data, not from the text of the source: active = GI50 up to about 1.1 µM and inactive = higher.
Thanks in advance; please answer with one of these: active, inactive

Here's what some known entries look like.
c1ccc([I+]c2ccccc2)cc1
inactive
COc1ccc(C[C@@H](CO)NC2=C(C#N)CCC2)cc1
inactive
Cc1cccc(NC(=S)N/N=C(/c2ccccc2)c2ccccn2)c1
active
C[N+](C)([O-])CCCNc1c2ccccc2nc2cccc([N+](=O)[O-])c12
active
CC1(C)C2CCC1(C)C(NC(=O)COCCOCC(N)=O)C2 (stereo unspecified)
inactive

Prompt: Returns: the outcome recorded for [N-]=[N+]=C1C(=O)c2ccccc2-c2ccccc21 in this assay.
Response: inactive

Prompt: Returns: the outcome recorded for Cc1nn(C(=O)c2ccc(Cl)cc2)c2c1C(c1ccccc1[N+](=O)[O-])SC(=N)N2 (stereo unspecified) in this assay.
Response: inactive

Prompt: Returns: the outcome recorded for CC(=O)OC12c3ccccc3-c3ccccc3C1C1C(=O)N(C)C(=O)C12Cl (stereo unspecified) in this assay.
Response: inactive

Prompt: Returns: the outcome recorded for Cc1ccc([S+]([O-])c2cccs2)cc1 (stereo unspecified) in this assay.
Response: inactive

Prompt: Returns: the outcome recorded for COc1cc(/C=c2/c3ccccc3n3c2cc(-c2ccccc2)[n+]3C)cc(OC)c1OC in this assay.
Response: inactive

Prompt: Returns: the outcome recorded for O=C(c1cccs1)N1CCCN(C(=O)c2cccs2)C1=S in this assay.
Response: inactive

----------
Test system: SNB-19
Assay: NCI tumour cell line growth inhibition, 48 h
Active and inactive are the calls of the source. Rule as the data show it: active = GI50 up to about 1.1 µM and inactive = higher.
Listing of entries alongside the reported GI50.

CC(C)(C)OC(=O)CCCCCNC(=O)CCCCCNC(=O)CCC(CN(CC(=O)OCc1ccccc1)CC(=O)OCc1ccccc1)N(CC(=O)OCc1ccccc1)CC(=O)OCc1ccccc1 (centres undefined)
> 100 µM (inactive)
C1CN1c1nc(N2CC2)nc(N2CC2)n1
6.65 µM (inactive)
CCCCN(Cc1ccccc1)/C(=N/C#N)N(Cc1ccccc1)Cc1ccccc1
20.7 µM (inactive)
CC1C(=NO)C(C)C(c2ccccc2)N(N=O)C1c1ccccc1 (centres undefined)
18.3 µM (inactive)
O=C1OCC(CN2CCC(n3c(=O)[nH]c4ccccc43)CC2)=C1c1ccccc1
26.1 µM (inactive)

Prompt: Query (molecule): CC(=O)O[C@H]1C(=O)[C@@]2(C)C(C(OC(=O)c3ccccc3)[C@]3(O)CC(OC(=O)C(O)C(NC(=O)c4ccccc4)c4cccc(Cl)c4)C(C)=C1C3(C)C)[C@]1(OC(C)=O)CO[C@@H]1C[C@@H]2O (some centres undefined) ; field requested: GI50
Response: > 10 µM (inactive)

Prompt: Query (molecule): CN(C)CC/C(=N\Nc1ccc(Cl)cc1Cl)c1ccccc1 ; field requested: GI50
Response: 16.1 µM (inactive)

Prompt: Query (molecule): BrCC[P+](c1ccccc1)(c1ccccc1)c1ccccc1 ; field requested: GI50
Response: 21.4 µM (inactive)

Prompt: Query (molecule): CC(C)N/C(N)=N/C#N ; field requested: GI50
Response: > 100 µM (inactive)

----------
Test system: A498
Experiment: NCI tumour cell line growth inhibition, 48 h
Calls of active or inactive are those of the source. Rule as the data show it: active = GI50 up to about 1.1 µM and inactive = higher.
readout type: GI50

Here's what some known entries look like.
CCOC(=O)C[n+]1ccc2c([nH]c3cc(OC)ccc32)c1C
> 81.5 µM (inactive)
COc1cc(C=O)c(-c2cc3c(cc2C2(C)OCCS2)OCO3)c(OC)c1OC (stereo not drawn)
7.85 µM (inactive)

Prompt: So what GI50 did CC(=O)OC1=CC2(OC(C)=O)CC(C)(C)C1C1C(=O)C=CC(=O)C12 (stereo not drawn) get with A498?
Response: 72.8 µM (inactive)

Prompt: So what GI50 did CC(C(=O)OCc1ccccc1)(c1ccco1)N1C(=O)OC(c2ccccc2)C1c1ccccc1 (stereo not drawn) get with A498?
Response: > 59.8 µM (inactive)

Prompt: So what GI50 did CN(CCNC(=O)c1nn(-c2ccccc2)c2c1ccc1ccccc12)CCNC(=O)c1nn(-c2ccccc2)c2c1ccc1ccccc12 get with A498?
Response: 2 µM (inactive)
